Condition notes: in isopropanol, 343.15 K
Readout: solubility (mole fraction)

Structure | Assay value
O=C(O)/C=C\C=C/C(=O)O | 0.0297

###

Condition notes: in acetic acid, 343.15 K

Structure | solubility (mole fraction)
O=C(O)/C=C\C=C/C(=O)O | 0.01

###

Condition notes: in isopropanol, 308.15 K

Structure | solubility (mole fraction)
O=C(O)/C=C\C=C/C(=O)O | 0.0124

###

Condition notes: in ethanol, 313.15 K

Structure | solubility (mole fraction)
O=C(O)/C=C\C=C/C(=O)O | 0.0184

###

Condition notes: in isopropanol, 313.15 K
Readout: solubility (mole fraction)

Structure | Readout | Assay value
O=C(O)/C=C\C=C/C(=O)O | solubility (mole fraction) | 0.0139

###

Condition notes: in acetic acid, 348.15 K

Structure | solubility (mole fraction)
O=C(O)/C=C\C=C/C(=O)O | 0.0125

###

Condition notes: in isopropanol, 298.15 K

Structure | solubility (mole fraction)
O=C(O)/C=C\C=C/C(=O)O | 0.0101

###

Condition notes: in water, 303.15 K
Readout: solubility (mole fraction)

Structure | Assay value
O=C(O)/C=C\C=C/C(=O)O | 0.0004

###

Condition notes: in isopropanol, 348.15 K
Readout: solubility (mole fraction)

Structure | Assay value
O=C(O)/C=C\C=C/C(=O)O | 0.0342

###

Condition notes: in isopropanol, 323.15 K
Readout: solubility (mole fraction)

Structure | Assay value
O=C(O)/C=C\C=C/C(=O)O | 0.017

###

Condition notes: in water, 343.15 K

Structure | solubility (mole fraction)
O=C(O)/C=C\C=C/C(=O)O | 0.0106

###

Condition notes: in acetic acid, 333.15 K

Structure | solubility (mole fraction)
O=C(O)/C=C\C=C/C(=O)O | 0.0076
